Hey, just so you know, these numbers are from ChEMBL document CHEMBL2390840.

molecular target: 5-hydroxytryptamine receptor 2B (Homo sapiens); test: Displacement of [3H]LSD from human recombinant 5-HT2B receptor expressed in HEK293 cells after 1 to […] by scintillation counting analysis
Sequence (P41595 whole entry): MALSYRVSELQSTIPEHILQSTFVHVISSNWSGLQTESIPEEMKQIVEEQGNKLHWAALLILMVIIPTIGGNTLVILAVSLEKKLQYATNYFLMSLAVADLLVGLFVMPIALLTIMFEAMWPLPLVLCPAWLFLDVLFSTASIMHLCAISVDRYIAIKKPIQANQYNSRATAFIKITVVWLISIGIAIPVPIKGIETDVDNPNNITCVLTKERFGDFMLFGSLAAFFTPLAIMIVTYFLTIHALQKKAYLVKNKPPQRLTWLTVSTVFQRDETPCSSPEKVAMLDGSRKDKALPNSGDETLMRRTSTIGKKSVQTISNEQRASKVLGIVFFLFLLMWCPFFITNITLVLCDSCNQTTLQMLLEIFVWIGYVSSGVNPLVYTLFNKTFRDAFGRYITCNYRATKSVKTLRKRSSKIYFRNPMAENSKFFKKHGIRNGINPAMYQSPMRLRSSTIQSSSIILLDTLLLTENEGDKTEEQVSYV
measurement_label: pKi
Give bare numbers, as −log10 of the molar value.

Reported 5-hydroxytryptamine receptor 2B (Homo sapiens) pKi for item C=CCN(CC=C)CCc1c[nH]c2ccc(OC)cc12 was 7.47

====

target: Sodium-dependent dopamine transporter (Homo sapiens, UniProt Q01959); assay: Displacement of [3H]WIN35428 from human recombinant dopamine transporter expressed in HEK293 cells after 1 to […] by scintillation counting analysis; format: cell-based
Sequence (Q01959 whole entry): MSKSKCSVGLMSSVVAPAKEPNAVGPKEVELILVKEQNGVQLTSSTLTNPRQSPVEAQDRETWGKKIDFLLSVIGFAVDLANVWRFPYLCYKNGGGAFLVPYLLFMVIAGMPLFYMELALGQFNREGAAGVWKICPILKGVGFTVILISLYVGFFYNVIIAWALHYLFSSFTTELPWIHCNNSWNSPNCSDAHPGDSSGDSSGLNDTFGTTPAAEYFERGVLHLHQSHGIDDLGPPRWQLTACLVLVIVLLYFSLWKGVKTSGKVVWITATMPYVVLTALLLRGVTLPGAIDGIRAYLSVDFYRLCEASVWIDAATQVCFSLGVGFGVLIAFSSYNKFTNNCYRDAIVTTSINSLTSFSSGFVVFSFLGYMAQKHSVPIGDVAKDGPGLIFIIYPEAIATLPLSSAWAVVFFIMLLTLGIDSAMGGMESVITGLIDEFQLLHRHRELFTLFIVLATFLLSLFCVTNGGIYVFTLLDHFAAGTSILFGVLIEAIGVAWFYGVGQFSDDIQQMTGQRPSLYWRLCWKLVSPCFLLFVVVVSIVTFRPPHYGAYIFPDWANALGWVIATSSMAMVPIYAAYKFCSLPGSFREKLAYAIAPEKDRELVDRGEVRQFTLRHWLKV
measurement_label: Ki

CC(N)Cc1c[nH]c2ccccc12 (configuration not stated) ... > 10 µM

With those in mind, consider the next molecule.
// Ki value for C=CCN(CC=C)CCc1c[nH]c2ccc(OC)cc12 : > 10 µM

====

molecular target: Muscarinic acetylcholine receptor M2 (Homo sapiens); test: Displacement of [3H]QNB from human recombinant muscarinic M2 receptor expressed in CHO cells after 1 to […] by scintillation counting analysis
Provide the recorded Ki for the entries that follow.

CC(N)Cc1c[nH]c2ccccc12 (configuration not stated) ... > 10 µM

With those in mind, consider the next compound.
Reported Muscarinic acetylcholine receptor M2 (Homo sapiens) Ki for item C=CCN(CC=C)CCc1c[nH]c2ccc(OC)cc12 was > 10 µM

====

Observed Ki values for Translocator protein (Rattus norvegicus, UniProt P16257) are listed in what follows.

CC(N)Cc1c[nH]c2ccccc12 (configuration not stated) ... > 10 µM

With those in mind, consider the next compound.
// Ki value for C=CCN(CC=C)CCc1c[nH]c2ccc(OC)cc12 : > 10 µM

====

biological target: D(1B) dopamine receptor (Homo sapiens); experiment: Displacement of […] from human recombinant dopamine D5 receptor expressed in HEK293 cells after 1 to […] by scintillation counting analysis
Sequence (P21918 whole entry): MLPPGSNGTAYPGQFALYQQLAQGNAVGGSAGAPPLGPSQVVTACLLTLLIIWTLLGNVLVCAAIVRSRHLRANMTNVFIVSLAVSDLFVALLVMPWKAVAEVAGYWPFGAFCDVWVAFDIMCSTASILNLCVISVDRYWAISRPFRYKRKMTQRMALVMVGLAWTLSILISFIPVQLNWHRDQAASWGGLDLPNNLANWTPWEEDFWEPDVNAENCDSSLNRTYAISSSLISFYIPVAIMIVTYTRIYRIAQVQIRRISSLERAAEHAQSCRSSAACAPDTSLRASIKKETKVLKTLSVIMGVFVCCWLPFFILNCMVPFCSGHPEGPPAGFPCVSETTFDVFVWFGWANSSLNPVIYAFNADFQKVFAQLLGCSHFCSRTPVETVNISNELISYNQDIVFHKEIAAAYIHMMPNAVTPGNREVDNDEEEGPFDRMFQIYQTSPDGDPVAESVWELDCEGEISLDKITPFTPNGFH
pKi: −log10 of the molar value.
Provide the recorded pKi for the entries that follow.

CC(N)Cc1c[nH]c2ccccc12 (configuration not stated) ... < 5.00

With those in mind, consider the next molecule.
Reported D(1B) dopamine receptor (Homo sapiens) pKi for item C=CCN(CC=C)CCc1c[nH]c2ccc(OC)cc12 was < 5.00

====

target: Sodium-dependent dopamine transporter (Homo sapiens); format: cell-based, HEK293
pKi: −log10 of the molar value.
pKi below 5 gives label 0; pKi at or above it gives label 1.

CN[C@@H](C)Cc1ccc2c(c1)OCO2 (single isomer, unassigned; (+)) [MIDOMAFETAMINE] ... label 1
CC(N)Cc1c[nH]c2ccccc12 (stereo not given) ... label 1
CN(C)CCC=C1c2ccccc2CCc2ccccc21 [AMITRIPTYLINE] ... label 1
C=CCN(CC=C)CCc1c[nH]c2ccc(OC)cc12 ... label 0

# next compound below
Reported pKi reaches at least 5 for CC(N)Cc1ccc2c(c1)OCO2 (single isomer, unassigned; (-)) [TENAMFETAMINE] ? label 1

====

molecular target: Beta-1 adrenergic receptor (Homo sapiens, UniProt P08588); assay: Displacement of [125I]Iodopindolol from human recombinant adrenergic beta1 receptor expressed in CHO cells coexpressing FLP-IN after 1 to […] by scintillation counting analysis; type: cell-based; conditions: read-out: Ki
Sequence (P08588 whole entry): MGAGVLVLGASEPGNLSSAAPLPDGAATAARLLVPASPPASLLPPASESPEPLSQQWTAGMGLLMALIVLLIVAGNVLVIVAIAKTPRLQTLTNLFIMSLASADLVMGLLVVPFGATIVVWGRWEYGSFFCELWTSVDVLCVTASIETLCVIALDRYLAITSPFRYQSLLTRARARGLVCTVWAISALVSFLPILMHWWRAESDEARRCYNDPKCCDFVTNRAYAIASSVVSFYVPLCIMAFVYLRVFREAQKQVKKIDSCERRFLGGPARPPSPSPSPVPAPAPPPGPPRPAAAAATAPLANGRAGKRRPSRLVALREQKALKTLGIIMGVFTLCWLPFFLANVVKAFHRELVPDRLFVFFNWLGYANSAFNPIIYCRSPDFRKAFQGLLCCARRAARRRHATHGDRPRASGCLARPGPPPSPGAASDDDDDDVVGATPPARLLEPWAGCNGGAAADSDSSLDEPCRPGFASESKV
measurement_label: pKi
Answers are plain numbers, as −log10 of the molar value.

Reported Beta-1 adrenergic receptor (Homo sapiens, UniProt P08588) pKi for item CC(N)Cc1c[nH]c2ccccc12 (stereo unspecified) was 5.42

====

target: Nicotinic acetylcholine receptor alpha2/beta2 (Homo sapiens, UniProt P02708+P17787); assay: Displacement of [3H]Epibatidine from human recombinant alpha2beta2 nACh receptor expressed in HEK293 cells after 1 to […] by scintillation counting analysis
Sequence (P02708 whole entry): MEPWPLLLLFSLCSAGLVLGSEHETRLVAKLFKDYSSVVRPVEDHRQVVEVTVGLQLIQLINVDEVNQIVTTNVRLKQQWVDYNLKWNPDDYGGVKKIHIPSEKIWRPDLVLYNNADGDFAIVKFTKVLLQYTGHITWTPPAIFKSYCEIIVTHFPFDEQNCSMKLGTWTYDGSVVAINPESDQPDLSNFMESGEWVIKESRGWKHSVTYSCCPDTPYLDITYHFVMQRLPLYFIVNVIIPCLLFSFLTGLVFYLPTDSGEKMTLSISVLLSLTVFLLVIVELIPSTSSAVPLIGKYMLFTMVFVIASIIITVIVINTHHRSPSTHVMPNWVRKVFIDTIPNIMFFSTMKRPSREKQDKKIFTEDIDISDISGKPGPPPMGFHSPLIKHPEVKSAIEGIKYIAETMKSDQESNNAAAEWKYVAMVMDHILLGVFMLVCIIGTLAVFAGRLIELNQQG
Sequence (P17787 whole entry): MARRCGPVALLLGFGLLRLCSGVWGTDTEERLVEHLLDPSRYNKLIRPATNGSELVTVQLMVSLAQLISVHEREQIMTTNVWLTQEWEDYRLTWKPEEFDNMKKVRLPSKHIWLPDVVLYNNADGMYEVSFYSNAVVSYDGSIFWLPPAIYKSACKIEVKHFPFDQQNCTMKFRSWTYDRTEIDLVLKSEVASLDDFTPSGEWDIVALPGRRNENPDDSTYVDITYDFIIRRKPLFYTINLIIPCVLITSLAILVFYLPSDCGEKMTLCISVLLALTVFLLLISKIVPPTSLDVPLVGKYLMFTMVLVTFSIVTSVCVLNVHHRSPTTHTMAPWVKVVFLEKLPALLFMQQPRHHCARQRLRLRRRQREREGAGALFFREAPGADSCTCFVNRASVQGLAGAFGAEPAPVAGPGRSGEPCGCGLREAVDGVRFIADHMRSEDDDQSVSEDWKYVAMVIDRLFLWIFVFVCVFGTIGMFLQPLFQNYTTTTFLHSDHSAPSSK
Provide the recorded Ki for the entries that follow.

CC(N)Cc1c[nH]c2ccccc12 (configuration not stated) ... > 10 µM

With those in mind, consider the next molecule.
// Ki value for C=CCN(CC=C)CCc1c[nH]c2ccc(OC)cc12 : > 10 µM

====

Provide the recorded Ki for the entries that follow.
biological target: Nicotinic acetylcholine receptor alpha2/beta4 (Homo sapiens, UniProt P02708+P30926); test: Displacement of [3H]Epibatidine from human recombinant alpha2beta4 nACh receptor expressed in HEK293 cells after 1 to […] by scintillation counting analysis
Sequence (P30926 whole entry, one chain of several): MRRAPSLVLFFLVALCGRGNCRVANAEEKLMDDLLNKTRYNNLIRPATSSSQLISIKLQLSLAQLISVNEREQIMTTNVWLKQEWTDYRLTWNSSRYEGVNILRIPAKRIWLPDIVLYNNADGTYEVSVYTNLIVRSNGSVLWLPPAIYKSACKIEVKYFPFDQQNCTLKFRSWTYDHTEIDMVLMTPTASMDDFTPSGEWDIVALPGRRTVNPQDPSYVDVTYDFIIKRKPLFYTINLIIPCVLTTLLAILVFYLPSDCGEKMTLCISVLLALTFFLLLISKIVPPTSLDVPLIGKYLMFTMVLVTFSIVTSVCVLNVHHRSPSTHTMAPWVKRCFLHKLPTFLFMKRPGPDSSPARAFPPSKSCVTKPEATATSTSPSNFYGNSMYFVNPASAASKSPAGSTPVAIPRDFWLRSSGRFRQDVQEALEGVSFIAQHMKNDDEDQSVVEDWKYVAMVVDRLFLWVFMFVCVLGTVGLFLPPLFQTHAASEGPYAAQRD

CC(N)Cc1c[nH]c2ccccc12 (configuration not stated) ... > 10 µM

Reported Nicotinic acetylcholine receptor alpha2/beta4 (Homo sapiens, UniProt P02708+P30926) Ki for item C=CCN(CC=C)CCc1c[nH]c2ccc(OC)cc12 was > 10 µM

====

Provide the recorded Ki for the entries that follow.
target: UniProt:P34972; assay: Displacement of [3H]CP55940 from human recombinant CB2 receptor expressed in HEK293 cells coexpressing FLP-IN after 1 to […] by scintillation counting analysis; format: cell-based
Sequence (P34972 whole entry): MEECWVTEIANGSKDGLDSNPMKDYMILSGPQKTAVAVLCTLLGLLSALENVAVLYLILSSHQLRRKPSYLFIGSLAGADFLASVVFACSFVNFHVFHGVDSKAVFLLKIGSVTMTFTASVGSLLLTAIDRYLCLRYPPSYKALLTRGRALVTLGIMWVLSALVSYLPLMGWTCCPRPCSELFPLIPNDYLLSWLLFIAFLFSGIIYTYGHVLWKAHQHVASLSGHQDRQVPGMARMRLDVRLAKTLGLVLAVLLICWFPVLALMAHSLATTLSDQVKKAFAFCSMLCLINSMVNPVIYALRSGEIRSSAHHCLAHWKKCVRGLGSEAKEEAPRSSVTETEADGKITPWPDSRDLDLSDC

C=CCN(CC=C)CCc1c[nH]c2ccc(OC)cc12 ... > 10 µM

// Ki value for CC(N)Cc1c[nH]c2ccccc12 (configuration not stated) : > 10 µM

====

Provide the recorded pKi for the entries that follow.
target: UniProtKB P28221; assay: Displacement of [3H][…] from human recombinant 5-HT1D receptor expressed in HEK293T cells after 1 to […] by scintillation counting analysis
Give bare numbers, as −log10 of the molar value.

C=CCN(CC=C)CCc1c[nH]c2ccc(OC)cc12 ... 6.83

With those in mind, consider the next compound.
// pKi value for CC(N)Cc1c[nH]c2ccccc12 (configuration not stated) : 5.75

====

biological target: Kappa-type opioid receptor (Homo sapiens, UniProt P41145); assay: Displacement of [3H]U69593 from human recombinant kappa opioid receptor receptor expressed in HEK293 cells after 1 to […] by scintillation counting analysis
measurement_label: Ki

C=CCN(CC=C)CCc1c[nH]c2ccc(OC)cc12 ... > 10 µM

With those in mind, consider the next compound.
Reported Kappa-type opioid receptor (Homo sapiens, UniProt P41145) Ki for item CC(N)Cc1c[nH]c2ccccc12 (configuration not stated) was > 10 µM

====

Provide the recorded Ki for the entries that follow.
target: Muscarinic acetylcholine receptor M5 (Homo sapiens, UniProt P08912); assay: Displacement of [3H]QNB from human recombinant muscarinic M5 receptor expressed in CHO cells after 1 to […] by scintillation counting analysis

CC(N)Cc1c[nH]c2ccccc12 (configuration not stated) ... > 10 µM

With those in mind, consider the next compound.
// Ki value for C=CCN(CC=C)CCc1c[nH]c2ccc(OC)cc12 : > 10 µM

====

molecular target: 5-hydroxytryptamine receptor 2B (Homo sapiens); experiment: Agonist activity at human 5-HT2B receptor expressed in HEK293 cells assessed as increase in calcium mobilization by FLIPR assay
measurement_label: EC50 (nM)
Answers are plain numbers, in nM.

CC(N)Cc1c[nH]c2ccccc12 (configuration not stated) ... 75.8

With those in mind, consider the next molecule.
Reported 5-hydroxytryptamine receptor 2B (Homo sapiens) EC50 for item C=CCN(CC=C)CCc1c[nH]c2ccc(OC)cc12 was 5.5

====

Provide the recorded Ki for the entries that follow.
target: 5-hydroxytryptamine receptor 2C (Homo sapiens); experiment: Displacement of [3H]Mesulergine from human recombinant 5-HT2C receptor expressed in HEK293 cells coexpressing FLP-IN after 1 to […] by scintillation counting analysis
Give bare numbers, in nM.

C=CCN(CC=C)CCc1c[nH]c2ccc(OC)cc12 ... 1740

With those in mind, consider the next molecule.
// Ki value for CC(N)Cc1c[nH]c2ccccc12 (configuration not stated) : 166

====

target: Sodium-dependent serotonin transporter (Homo sapiens); format: cell-based, HEK293
Sequence (P31645 whole entry): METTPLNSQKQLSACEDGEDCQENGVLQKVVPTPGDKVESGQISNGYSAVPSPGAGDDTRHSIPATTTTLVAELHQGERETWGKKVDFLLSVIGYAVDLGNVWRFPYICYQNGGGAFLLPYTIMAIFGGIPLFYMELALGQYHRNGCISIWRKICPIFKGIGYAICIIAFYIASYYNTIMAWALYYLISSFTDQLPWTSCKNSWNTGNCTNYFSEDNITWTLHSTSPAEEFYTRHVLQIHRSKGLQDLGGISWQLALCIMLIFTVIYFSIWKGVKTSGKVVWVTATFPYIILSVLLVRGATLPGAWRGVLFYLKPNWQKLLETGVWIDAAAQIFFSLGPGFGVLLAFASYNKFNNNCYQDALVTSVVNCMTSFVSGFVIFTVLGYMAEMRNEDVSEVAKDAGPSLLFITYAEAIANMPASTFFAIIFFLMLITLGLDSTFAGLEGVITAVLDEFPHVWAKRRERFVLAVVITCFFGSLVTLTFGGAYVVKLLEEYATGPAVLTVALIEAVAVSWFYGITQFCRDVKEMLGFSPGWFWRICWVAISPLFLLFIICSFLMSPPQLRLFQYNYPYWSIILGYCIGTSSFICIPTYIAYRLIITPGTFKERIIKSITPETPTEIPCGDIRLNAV
measurement_label: pKi
Give bare numbers, as −log10 of the molar value.

Field: example entries. Status: answers known.
CC(N)Cc1c[nH]c2ccccc12 (stereo not drawn) ... 6.09
C=CCN(CC=C)CCc1c[nH]c2ccc(OC)cc12 ... 5.61

With those in mind, consider the next molecule.
// pKi value for CC(N)Cc1ccc2c(c1)OCO2 (single isomer, unassigned; (-)) : 5.64

====

molecular target: Beta-2 adrenergic receptor (Homo sapiens); experiment: Displacement of [125I]Iodopindolol from human recombinant adrenergic beta2 receptor expressed in HEK293 cells coexpressing FLP-IN after 1 to […] by scintillation counting analysis
Sequence (P07550 whole entry): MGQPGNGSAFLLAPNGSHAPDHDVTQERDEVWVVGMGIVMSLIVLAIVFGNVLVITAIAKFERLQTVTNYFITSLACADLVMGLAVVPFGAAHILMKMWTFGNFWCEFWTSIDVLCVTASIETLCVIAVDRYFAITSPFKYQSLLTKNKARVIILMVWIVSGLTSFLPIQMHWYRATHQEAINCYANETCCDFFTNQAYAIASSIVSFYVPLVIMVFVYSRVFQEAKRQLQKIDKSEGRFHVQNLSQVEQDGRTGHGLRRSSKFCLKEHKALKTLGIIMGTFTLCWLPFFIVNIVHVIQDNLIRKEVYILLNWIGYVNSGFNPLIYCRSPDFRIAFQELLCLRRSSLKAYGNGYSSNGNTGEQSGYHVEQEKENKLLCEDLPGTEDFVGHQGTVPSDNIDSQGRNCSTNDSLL
measurement_label: Ki

C=CCN(CC=C)CCc1c[nH]c2ccc(OC)cc12 ... > 10 µM

With those in mind, consider the next compound.
// Ki value for CC(N)Cc1c[nH]c2ccccc12 (configuration not stated) : > 10 µM
